Test: KM-34 capacity to reduce DPPH radicals
Assay type: biochemical
Conditions: DPPH 100 μM, 30 minutes of reaction; read-out: IC50, reduction of DPPH radicals
Record form. Attribute: pIC50. Fill in for each entry.
Numbers only, as −log10 of the molar value.

molecule	pIC50
O=C1O[C@H]([C@@H](O)CO)C(O)=C1O [AA, ascorbic acid, reference compound]	4.41

Note: attention shifts to another entry.
Answer with the recorded pIC50 for the molecule listed here: CC1(C)OC(=O)C(=Cc2ccc(O)c(O)c2)C(=O)O1 [KM-34]
4.79
